system: KSHV-infected TREX-BCBL-Vector cells; assay: GFP-LC3 puncta autophagy assessment after peptide treatment; type: cell-based; settings: 30 or 50 μM peptide, 12 hr
Non-standard residues stand in square brackets, D forms with d. No end group written: not given here.
Reported Property: autophagy induction (GFP-LC3 puncta)

[[record]]
substance = "RRRQRRKKRGY-G-FVNLAAAVVE [K-α2m]"
data_value = "no increase in autophagy"

[[record]]
substance = "RRRQRRKKRGY-G ([dR][dR][dR][dQ][dR][dR][dK][dK][dR]G[dY]G; not fully specified; printed as RRRQRRKKRGY-G) [HIV-1 TAT only, HIV-1 TAT protein transduction domain alone, reference compound]"
data_value = "no increase in autophagy"

[[record]]
substance = "RRRQRRKKRGY-G-NEMCAAAHAATQ [K-α4m]"
data_value = "no increase in autophagy"


Attribution: patent US20130316958A1
